Target: 2-5A-dependent ribonuclease (Homo sapiens) (UniProt Q05823)
Assay: Activation of human RNase L expressed in Escherichia coli BL21 (DE3) cells assessed as RNA cleavage using Cy5-rC11-UU-C7-BHQ2 as substrate by FRET assay
Activity calls are given as the source filed them. No cut-off for these calls is given here.
Reply using exactly one outcome from active, inactive

See these solved cases before continuing.
{"columns": ["mol", "answer_label"],
 "data": [
  ["Nc1ncnc2c1ncn2[C@@H]1O[C@H](COP(=O)(O)CO[C@@H]2[C@H](O)[C@@H](COP(=O)(O)O[C@@H]3[C@H](O)[C@@H](COP(=O)(O)O[C@@H]4[C@H](O)[C@@H](COP(=O)(O)O)O[C@H]4n4cnc5c(N)ncnc54)O[C@H]3n3cnc4c(N)ncnc43)O[C@H]2n2cnc3c(N)ncnc32)[C@@H](O)[C@H]1O", "active"],
  ["Nc1ncnc2c1ncn2[C@@H]1O[C@H](COP(=O)(O)CO[C@H]2[C@H](O)[C@@H](COP(=O)(O)O[C@@H]3[C@H](O)[C@@H](COP(=O)(O)O[C@@H]4[C@H](O)[C@@H](COP(=O)(O)O)O[C@H]4n4cnc5c(N)ncnc54)O[C@H]3n3cnc4c(N)ncnc43)O[C@H]2n2cnc3c(N)ncnc32)[C@@H](O)[C@H]1O", "active"],
  ["Nc1ncnc2c1ncn2[C@@H]1O[C@H](COP(=O)(O)O[C@@H]2[C@@H](O)[C@@H](COCP(=O)(O)O[C@@H]3[C@H](O)[C@@H](COP(=O)(O)O[C@@H]4[C@H](O)[C@@H](COP(=O)(O)O)O[C@H]4n4cnc5c(N)ncnc54)O[C@H]3n3cnc4c(N)ncnc43)O[C@H]2n2cnc3c(N)ncnc32)[C@@H](O)[C@H]1O", "active"],
  ["Nc1ncnc2c1ncn2[C@@H]1O[C@H](COP(=O)(O)O[C@@H]2[C@H](O)[C@@H](COP(=O)(O)O[C@@H]3[C@H](O)[C@@H](COCP(=O)(O)O[C@@H]4[C@H](O)[C@@H](COP(=O)(O)O)O[C@H]4n4cnc5c(N)ncnc54)O[C@H]3n3cnc4c(N)ncnc43)O[C@H]2n2cnc3c(N)ncnc32)[C@@H](O)[C@H]1O", "inactive"],
  ["Nc1ncnc2c1ncn2[C@@H]1O[C@H](COP(=O)(O)O[C@@H]2[C@H](O)[C@@H](COP(=O)(O)O[C@@H]3[C@H](O)[C@@H](COP(=O)(O)O[C@H]4[C@H](O)[C@@H](COCP(=O)(O)O)O[C@H]4n4cnc5c(N)ncnc54)O[C@H]3n3cnc4c(N)ncnc43)O[C@H]2n2cnc3c(N)ncnc32)[C@@H](O)[C@H]1O", "active"]
]}

Now consider a different compound.
stdin: Look up the recorded call for Nc1ncnc2c1ncn2[C@@H]1O[C@H](COP(=O)(O)O[C@@H]2[C@H](O)[C@@H](COP(=O)(O)O[C@@H]3[C@H](O)[C@@H](COP(=O)(O)CO[C@@H]4[C@@H](O)[C@@H](COP(=O)(O)O)O[C@H]4n4cnc5c(N)ncnc54)O[C@H]3n3cnc4c(N)ncnc43)O[C@H]2n2cnc3c(N)ncnc32)[C@@H](O)[C@H]1O in this test.
stdout: active

---

Target: 2-5A-dependent ribonuclease (Homo sapiens)
Sequence (whole entry): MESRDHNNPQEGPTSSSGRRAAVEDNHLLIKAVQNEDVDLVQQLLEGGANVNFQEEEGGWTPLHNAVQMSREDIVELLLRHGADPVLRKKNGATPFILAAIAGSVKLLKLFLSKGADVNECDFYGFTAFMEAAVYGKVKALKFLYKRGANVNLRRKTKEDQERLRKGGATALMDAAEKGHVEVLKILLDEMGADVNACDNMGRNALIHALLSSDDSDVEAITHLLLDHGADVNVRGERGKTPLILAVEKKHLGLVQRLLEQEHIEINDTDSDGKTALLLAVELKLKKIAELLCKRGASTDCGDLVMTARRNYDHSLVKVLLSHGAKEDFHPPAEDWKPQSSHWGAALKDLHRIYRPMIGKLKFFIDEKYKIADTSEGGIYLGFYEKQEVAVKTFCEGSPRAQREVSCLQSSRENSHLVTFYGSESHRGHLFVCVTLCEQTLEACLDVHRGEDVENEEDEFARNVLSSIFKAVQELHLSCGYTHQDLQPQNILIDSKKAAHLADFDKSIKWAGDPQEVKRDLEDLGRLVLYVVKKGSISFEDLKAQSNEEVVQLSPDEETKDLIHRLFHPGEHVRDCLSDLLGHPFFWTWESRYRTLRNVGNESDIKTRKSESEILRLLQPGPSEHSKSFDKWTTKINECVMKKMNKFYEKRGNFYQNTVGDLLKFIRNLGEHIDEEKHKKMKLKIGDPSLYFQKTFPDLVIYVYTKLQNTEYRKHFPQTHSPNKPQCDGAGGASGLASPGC
Assay: Activation of human RNase L expressed in Escherichia coli BL21 (DE3) cells assessed as RNA cleavage using Cy5-rC11-UU-C7-BHQ2 as substrate by FRET assay
Calls of active or inactive are those of the source. No cut-off for these calls is given here.

{"columns": ["mol", "experimental_system", "Activity"],
 "data": [
  ["Nc1ncnc2c1ncn2[C@@H]1O[C@H](COCP(=O)(O)O[C@@H]2[C@H](O)[C@@H](COP(=O)(O)O[C@@H]3[C@H](O)[C@@H](COP(=O)(O)O[C@@H]4[C@H](O)[C@@H](COP(=O)(O)O)O[C@H]4n4cnc5c(N)ncnc54)O[C@H]3n3cnc4c(N)ncnc43)O[C@H]2n2cnc3c(N)ncnc32)[C@@H](O)[C@H]1O", "2-5A-dependent ribonuclease (Homo sapiens)", "Active"],
  ["Nc1ncnc2c1ncn2[C@@H]1O[C@H](COP(=O)(O)O[C@@H]2[C@H](O)[C@@H](COP(=O)(O)O[C@@H]3[C@H](O)[C@@H](COP(=O)(O)O[C@@H]4[C@@H](O)[C@@H](COCP(=O)(O)O)O[C@H]4n4cnc5c(N)ncnc54)O[C@H]3n3cnc4c(N)ncnc43)O[C@H]2n2cnc3c(N)ncnc32)[C@@H](O)[C@H]1O", "2-5A-dependent ribonuclease (Homo sapiens)", "Active"],
  ["Nc1ncnc2c1ncn2[C@@H]1O[C@H](COCP(=O)(O)O[C@@H]2[C@H](O)[C@@H](COP(=O)(O)O[C@@H]3[C@H](O)[C@@H](COP(=O)(O)O[C@@H]4[C@H](O)[C@@H](COP(=O)(O)O)O[C@H]4n4cnc5c(N)ncnc54)O[C@H]3n3cnc4c(N)ncnc43)O[C@H]2n2cnc3c(N)ncnc32)[C@H](O)[C@H]1O", "2-5A-dependent ribonuclease (Homo sapiens)", "Active"]
]}

---

Target: 2-5A-dependent ribonuclease (Homo sapiens)
Assay: Activation of human RNase L expressed in Escherichia coli BL21 (DE3) cells assessed as RNA cleavage using Cy5-rC11-UU-C7-BHQ2 as substrate by FRET assay
Measured pEC50 accompanies every entry in the list below.
Kindly note that pEC50 refers to -log10 of the concentration in mol/L and answer with the value alone.

Below are worked cases with known answers.
{"columns": ["mol", "quantity_measured", "value_observed"],
 "data": [
  ["Nc1ncnc2c1ncn2[C@@H]1O[C@H](COCP(=O)(O)O[C@@H]2[C@H](O)[C@@H](COP(=O)(O)O[C@@H]3[C@H](O)[C@@H](COP(=O)(O)O[C@@H]4[C@H](O)[C@@H](COP(=O)(O)O)O[C@H]4n4cnc5c(N)ncnc54)O[C@H]3n3cnc4c(N)ncnc43)O[C@H]2n2cnc3c(N)ncnc32)[C@H](O)[C@H]1O", "pEC50", 8.38],
  ["Nc1ncnc2c1ncn2[C@@H]1O[C@H](COP(=O)(O)O[C@@H]2[C@H](O)[C@@H](COP(=O)(O)O[C@@H]3[C@H](O)[C@@H](COP(=O)(O)O[C@H]4[C@H](O)[C@@H](COCP(=O)(O)O)O[C@H]4n4cnc5c(N)ncnc54)O[C@H]3n3cnc4c(N)ncnc43)O[C@H]2n2cnc3c(N)ncnc32)[C@@H](O)[C@H]1O", "pEC50", 6.00]
]}

Turning now to a further compound:
The reported pEC50 of the compound Nc1ncnc2c1ncn2[C@@H]1O[C@H](COP(=O)(O)O[C@@H]2[C@@H](O)[C@@H](COCP(=O)(O)O[C@@H]3[C@H](O)[C@@H](COP(=O)(O)O[C@@H]4[C@H](O)[C@@H](COP(=O)(O)O)O[C@H]4n4cnc5c(N)ncnc54)O[C@H]3n3cnc4c(N)ncnc43)O[C@H]2n2cnc3c(N)ncnc32)[C@@H](O)[C@H]1O was 6.00

---

Target: 2-5A-dependent ribonuclease (Homo sapiens)
Assay: Activation of human RNase L expressed in Escherichia coli BL21 (DE3) cells assessed as RNA cleavage using Cy5-rC11-UU-C7-BHQ2 as substrate by FRET assay
pEC50: −log10 of the molar value.
quantity_measured: pEC50

{"columns": ["mol", "pEC50"],
 "data": [
  ["Nc1ncnc2c1ncn2[C@@H]1O[C@H](COP(=O)(O)O[C@@H]2[C@H](O)[C@@H](COP(=O)(O)O[C@@H]3[C@H](O)[C@@H](COCP(=O)(O)O[C@@H]4[C@H](O)[C@@H](COP(=O)(O)O)O[C@H]4n4cnc5c(N)ncnc54)O[C@H]3n3cnc4c(N)ncnc43)O[C@H]2n2cnc3c(N)ncnc32)[C@@H](O)[C@H]1O", "< 6.00"]
]}

Turning now to a further compound:
The reported pEC50 of the compound Nc1ncnc2c1ncn2[C@@H]1O[C@H](COP(=O)(O)O[C@@H]2[C@H](O)[C@@H](COP(=O)(O)CO[C@@H]3[C@H](O)[C@@H](COP(=O)(O)O[C@@H]4[C@H](O)[C@@H](COP(=O)(O)O)O[C@H]4n4cnc5c(N)ncnc54)O[C@H]3n3cnc4c(N)ncnc43)O[C@H]2n2cnc3c(N)ncnc32)[C@@H](O)[C@H]1O was < 6.00
